Each recorded value in this set is attributed to patent US11286268B1.

Measured IC50 by item
molecular target: recombinant eIF4E (Homo sapiens (Human)); experiment: Fluorescence polarization competition assay for eIF4E binding potency; details: fluorescence polarization competition, 75 nM recombinant eIF4E, 20 nM EDA-m7GDP-ATTO-550; IC50 class; read-out: elF4E FP
Sequence (P06730 whole entry): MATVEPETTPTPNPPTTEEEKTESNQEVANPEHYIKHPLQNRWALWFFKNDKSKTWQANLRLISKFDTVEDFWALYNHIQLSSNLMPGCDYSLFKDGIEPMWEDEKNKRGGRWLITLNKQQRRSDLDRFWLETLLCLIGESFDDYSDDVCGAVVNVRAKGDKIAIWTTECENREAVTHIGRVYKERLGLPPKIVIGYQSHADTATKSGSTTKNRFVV
MEASURED_PROPERTY: IC50

N#Cc1cncc2ncn(CCOc3ccc(Cl)cc3-c3cccc(C(=O)O)c3)c(=O)c12    50 to 1000 nM
Cc1cc(-c2cc(Cl)ccc2OCCn2c(C)nc3cnc(N)c(C#N)c3c2=O)c2scc(C(=O)O)c2n1    < 50 nM
COc1ccc2nc(C)n(CCOc3ccc(Cl)cc3-c3ccnc4c(C(=O)O)csc34)c(=O)c2c1C#N    < 50 nM
Cc1nc2cc(C(F)(F)F)cc(C#N)c2c(=O)n1CCOc1ccc(Cl)cc1-c1cccc(C(=O)O)c1C#N    < 50 nM
